Entry source: patent US9695330B2

Test: Distribution coefficient of water-octanol (logP), OECD Test Guideline 107
Type: physicochemical
Settings: octanol/water
Readout label: logP

As a guide, the following entries are already answered.
1. CCOCC(O)CO (centres unmarked): -0.43
2. OCC(O)COC1CCCCC1 (centres unmarked): 1
3. COCC(O)CO (centres unmarked): -0.62
4. CC(C)CCOCC(O)CO (centres unmarked): 0.94
5. CCCCCOCC(O)CO (centres unmarked): 0.9

I: C=CCOCC(O)CO (centres unmarked)
II: C#CCOCC(O)CO (centres unmarked)
III: CCCCCCOCC(O)CO (centres unmarked)
IV: CC(=O)OCC(COC(C)=O)OC(C)=O [glycerol triacetate]
V: CC1CCC(C(C)C)C(OCC(O)CO)C1 (centres unmarked)
Sort by logP, descending. Please reply with the labels ordered as requested. Many thanks.
V, II, III, IV, I
(V: 2.6, II: 0.75, III: 0.36, IV: -0.24, I: -0.46)

---

Test: Distribution coefficient of water-octanol (logP), OECD Test Guideline 107
Assay type: physicochemical
Readout label: logP (distribution coefficient of water-octanol)

P: CCC(=O)OCC(O)CO (stereo not shown) [propionic acid 2,3-dihydroxypropyl]
Q: C=C(C)C(=O)OCC(O)CO (stereo not shown) [methacrylic acid 2,3-dihydroxypropyl]
Problem: Given the entries P and Q , determine which has the lower reported logP (distribution coefficient of water-octanol). Output the label that corresponds to your choice.
P

---

Test: Distribution coefficient of water-octanol (logP), OECD Test Guideline 107
Type: physicochemical
Readout label: logP
// no unit string in output, number only

Please look at this molecule and report its logP: CCCCC(CC)COCC(O)CO (stereo not shown) [3-(2-ethylhexyloxy)-1,2-propanediol]
2.53
